Assay Details: qHTS for Inhibitors of human tyrosyl-DNA phosphodiesterase 1 (TDP1): qHTS in cells in absence of CPT; note: nearly all actives have a fitted effect of over 55% in size
Condition: DT40 Tdp1-/- hTDP1 cells, no CPT, ATP luminescence, 48 h
In all, about 420,000 compounds went through this assay and about 64,000 (15%) were called active. Not shown: some 27% with an inconclusive outcome. Calls come from the whole dose curve; as a rule, active = well fitted inhibition curve with a large enough effect; inconclusive = small, poorly fitted or top-dose-only effect; inactive = flat fitted curve, though single readings scatter. The list is a sample of the results.
Classes used: active, inactive

# Compound, Class Label
measured = [
    ("COc1ccc(Cn2ccnc2SCC(=O)NCc2ccco2)cc1", "inactive"),
    ("Cc1ccccc1CN1CCN(CC(=O)NCc2ccccn2)C1=O", "inactive"),
    ("CCNC(=O)c1c(O)c2cccc3c2n(c1=O)CC3", "active"),
    ("COc1ccc(NC(=O)CC2SC(N3CCCCC3)=NC2=O)cc1OC (centres undefined)", "inactive"),
    ("Cc1cc(C)cc(NC(=O)CSCc2cnn(-c3ccccc3)c2-n2cccc2)c1", "active"),
    ("O=c1nc2s/c(=C\\c3ccco3)c(=O)n2nc1Cc1ccccc1", "inactive"),
    ("Cc1ccc(S(=O)(=O)c2cc3c(=O)n4cccc(C)c4nc3n(CCc3ccccc3)c2=N)cc1C", "inactive"),
    ("CN1C(=O)[C@H]2[C@@H](C3CC3)N3C(=O)CN(Cc4ccccc4)C(=O)[C@@]3(C)[C@H]2C1=O", "inactive"),
    ("Cc1ccccc1NC(=O)CSc1ccc2nnc(-c3ccccn3)n2n1", "inactive"),
    ("Cc1ccc2c(c1)nnc1nnc(SCC(=O)O)n12", "inactive"),
    ("COc1ccc(CNC(=O)c2cc3c(=O)n4ccccc4nc3n(CC3CCCO3)c2=N)cc1 (centres undefined)", "inactive"),
    ("Cc1ccccc1NC(=O)c1cnn(-c2ccccc2)c1NC(=O)c1ccco1", "inactive"),
    ("Cc1ccc2nc3c(cc(C(=O)NCCc4ccccc4)c(=N)n3CC3CCCO3)c(=O)n2c1 (centres undefined)", "active"),
    ("CC(C)(C)NC(=O)C(c1ccco1)N(Cc1ccc2c(c1)OCO2)C(=O)Cn1nnc2ccccc21 (centres undefined)", "inactive"),
    ("Fc1ccc(Nc2nc(SCc3ccccc3Cl)nc3ccccc23)cc1", "active"),
    ("Cc1nn(Cc2ccccc2)c(C)c1C(=O)N1CCN(CC(=O)Nc2ccccc2Cl)CC1", "active"),
    ("COc1ccc(NC(=O)CN2C(=O)C(c3ccccc3)=NC23CCCCCC3)cc1OC", "active"),
    ("NC(=O)c1ccccc1N(Cc1ccccc1)S(=O)(=O)c1ccccc1", "inactive"),
    ("Cc1cc(C)cc(NC(=O)CSc2ccccc2)c1", "inactive"),
    ("CCCCn1c(=N)c(S(=O)(=O)c2ccccc2)cc2c(=O)n3cccc(C)c3nc21", "inactive"),
    ("CCc1c(O)cc2n(c1=O)-c1ccccc1C2(C)C", "inactive"),
    ("Cc1noc(C)c1C(=O)Nc1ccccn1", "inactive"),
    ("Cc1cccn2c(=O)c3cc(C(=O)NC4CCCCC4)sc3nc12", "inactive"),
    ("COC(=O)c1c(NC(=O)c2c(Cl)cnn2C)sc(C)c1C", "inactive"),
    ("Nc1cc(N)nc(SCc2cccc(F)c2)n1", "inactive"),
    ("CN(Cc1ccccc1)C(=O)c1cc2c(=O)n(C)c3ccccc3c2s1", "inactive"),
    ("COc1ccc(NC(=O)CNC(=O)Cc2ccccc2)cc1OC", "inactive"),
    ("O=C(NCCc1ccccn1)c1nc(Cn2cc([N+](=O)[O-])cn2)no1", "inactive"),
    ("COc1ccc(CCn2c(=N)c(C(=O)NCc3ccco3)cc3c(=O)n4cccc(C)c4nc32)cc1", "active"),
    ("Cc1ccccc1CN1C[C@@H]2C[C@@H](c3ccc4nsnc4c3)N3CCC[C@@]23C1=O", "active"),
    ("O=C(CSc1ccc(-c2ccccn2)nn1)Nc1ccccc1", "active"),
    ("Cc1nc2ccc(N)nc2nc1C", "inactive"),
    ("Cc1cccn2c(=O)c3cc(C(=O)NCCN4CCOCC4)c(=N)n(Cc4cccnc4)c3nc12", "active"),
    ("Cc1ccn2c(=O)nc(SCC(=O)NCc3ccc4c(c3)OCO4)nc2c1", "inactive"),
    ("O=C(NCCCn1ccnc1)C1CCCN(S(=O)(=O)c2cc(Cl)ccc2Cl)C1 (centres undefined)", "inactive"),
    ("CCC(=O)Nc1ccccc1C(=O)N1CCN(Cc2ccccc2)CC1", "inactive"),
    ("O=C(CSc1ccc(-c2ccco2)nn1)NCc1ccc2c(c1)OCO2", "inactive"),
    ("CCOC(=O)c1cn(CC(=O)Nc2ccc(C(C)C)cc2)nn1", "inactive"),
    ("O=C(CSc1ccc(-c2ccc(F)cc2)nn1)Nc1ccc2c(c1)OCCO2", "inactive"),
    ("Fc1cccc(Cc2noc(CN3CCN(c4cnccn4)CC3)n2)c1", "inactive"),
    ("CC(=O)Nc1ccc(NC(=O)CSCc2cnn(-c3ccccc3)c2-n2cccc2)cc1", "inactive"),
    ("CC(=O)NC(CC(=O)Nc1ccc(S(=O)(=O)N2CCOCC2)cc1)c1ccccc1 (centres undefined)", "inactive"),
    ("Cc1nn(Cc2ccccc2)c(C)c1C(=O)NCCCN1CCCC1=O", "inactive"),
    ("Cc1nc2nc(COc3ccccc3)[nH]n2c(=O)c1C", "inactive"),
]
